# test summary: Half life in Wistar rat at 5 to 10 mg/kg, iv
# Type: ADME, organism-based
# Parameters: dose 5-10 mg/kg, route intravenous
# conditions: in vivo
Listing of entries alongside the reported half-life.
property label: half-life (h)

item smiles	val
CN1CCN(Cc2cccc3c2ccn3S(=O)(=O)c2ccccc2Br)CC1	1.76
CN1CCN(Cc2cccc3c2ccn3S(=O)(=O)c2ccccc2)CC1	1.53

====

# test summary: Apparent volume of distribution in Wistar rat at 5 to 10 mg/kg, iv
# Type: ADME, organism-based
# Set-up: dose 5-10 mg/kg, route intravenous
# conditions: in vivo, read-out: Vz

item smiles	units	Vd
CN1CCN(Cc2cccc3c2ccn3S(=O)(=O)c2ccccc2)CC1	L/kg	19.4
CN1CCN(Cc2cccc3c2ccn3S(=O)(=O)c2ccccc2Br)CC1	L/kg	32.6

====

Listing of entries alongside the reported metabolised at 0.5 h, 2.5 µM.
# test summary: Drug metabolism in Wistar rat liver microsomes at 2.5 uM after 0.5 hrs
# Assay type: ADME, Microsome
# conditions: read-out: Drug metabolism
property label: metabolised at 0.5 h, 2.5 µM

item smiles	val
CN1CCN(Cc2cccc3c2ccn3S(=O)(=O)c2ccccc2Br)CC1	100%
CN1CCN(Cc2cccc3c2ccn3S(=O)(=O)c2ccccc2)CC1	100%

====

# test summary: Oral bioavailability in Wistar rat at 10 mg/kg
# Assay type: ADME, organism-based
# conditions: in vivo
Listing of entries alongside the reported bioavailability.

item smiles	units	bioavailability
CN1CCN(Cc2cccc3c2ccn3S(=O)(=O)c2ccccc2)CC1	%	2
CN1CCN(Cc2cccc3c2ccn3S(=O)(=O)c2ccccc2Br)CC1	%	29

====

# test summary: Ratio of drug level in brain to plasma at steady state in Wistar rat at 10 mg/kg, po after 1 hr
# Type: ADME, organism-based
# Design: dose 10 mg/kg, route oral
# conditions: read-out: BPR

item smiles	Kp at 1 h
CN1CCN(Cc2cccc3c2ccn3S(=O)(=O)c2ccccc2Br)CC1	20.3

====

# system tested: 5-hydroxytryptamine receptor 2A (Homo sapiens) (UniProt P28223)
# Sequence (P28223 whole entry): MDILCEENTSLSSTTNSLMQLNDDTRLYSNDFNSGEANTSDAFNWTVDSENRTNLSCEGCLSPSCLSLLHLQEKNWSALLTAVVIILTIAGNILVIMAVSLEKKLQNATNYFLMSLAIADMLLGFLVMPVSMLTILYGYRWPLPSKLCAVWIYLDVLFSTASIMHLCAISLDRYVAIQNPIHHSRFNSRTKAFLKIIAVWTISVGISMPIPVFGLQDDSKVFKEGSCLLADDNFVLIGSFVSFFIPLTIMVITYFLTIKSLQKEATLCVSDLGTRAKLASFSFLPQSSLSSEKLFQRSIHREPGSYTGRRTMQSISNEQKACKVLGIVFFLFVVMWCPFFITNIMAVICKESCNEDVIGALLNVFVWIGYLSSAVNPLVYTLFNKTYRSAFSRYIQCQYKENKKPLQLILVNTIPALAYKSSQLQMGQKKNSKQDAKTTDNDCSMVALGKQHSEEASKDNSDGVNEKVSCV
# test summary: Inhibition of 5HT2A receptor at 1 uM by radioligand displacement assay

item smiles	inhibition [%]
O=S(=O)(c1ccccc1Br)n1ccc2c(CN3CCNCC3)cccc21	18.7
CN1CCN(Cc2cccc3c2c(Cl)cn3S(=O)(=O)c2cccc(Cl)c2)CC1	17.7
CN1CCN(Cc2cccc3c2ccn3S(=O)(=O)c2ccccc2Br)CC1	24
CN1CCN(Cc2cccc3c2ccn3S(=O)(=O)c2ccccc2)CC1	10.9
CN1CCN(Cc2cccc3c2c(Br)cn3S(=O)(=O)c2ccccc2)CC1	19.3

====

These records show IC50 for Cytochrome P450 2D6 (Homo sapiens, UniProt P10635).
property label: IC50 (µM)

item smiles	system tested	val
CN1CCN(Cc2cccc3c2ccn3S(=O)(=O)c2ccccc2Br)CC1	Cytochrome P450 2D6 (Homo sapiens, UniProt P10635)	19.5
CN1CCN(Cc2cccc3c2ccn3S(=O)(=O)c2ccccc2)CC1	Cytochrome P450 2D6 (Homo sapiens, UniProt P10635)	16.8

====

# test summary: Half life in Wistar rat at 10 mg/kg, po
# Assay type: ADME, organism-based
# Parameters: dose 10 mg/kg, route oral
# conditions: in vivo

item smiles	half-life [h]
CN1CCN(Cc2cccc3c2ccn3S(=O)(=O)c2ccccc2Br)CC1	3.17

====

# system tested: Histamine H1 receptor (Homo sapiens)
# test summary: Inhibition of histamine H1 receptor at 1 uM by radioligand displacement assay

item smiles	units	inhibition
CN1CCN(Cc2cccc3c2c(Cl)cn3S(=O)(=O)c2cccc(Cl)c2)CC1	%	9.33
CN1CCN(Cc2cccc3c2ccn3S(=O)(=O)c2ccccc2Br)CC1	%	9.48
CN1CCN(Cc2cccc3c2ccn3S(=O)(=O)c2ccccc2)CC1	%	10.1
CN1CCN(Cc2cccc3c2c(Br)cn3S(=O)(=O)c2ccccc2)CC1	%	2.38
O=S(=O)(c1ccccc1Br)n1ccc2c(CN3CCNCC3)cccc21	%	9.82

====

# test summary: AUCt in Wistar rat at 10 mg/kg, po
# Type: ADME, organism-based
# Set-up: dose 10 mg/kg, route oral
# conditions: plasma
Listing of entries alongside the reported AUC(0-t).

item smiles	units	AUC(0-t)
CN1CCN(Cc2cccc3c2ccn3S(=O)(=O)c2ccccc2)CC1	ng·h/mL	23
CN1CCN(Cc2cccc3c2ccn3S(=O)(=O)c2ccccc2Br)CC1	ng·h/mL	217

Values compiled from ChEMBL document CHEMBL2203006.
